For each entry below, report its pIC50 value.
- Tested target: indoleamine 2,3-dioxygenase (IDO) (Homo sapiens, UniProt P14902)
- Construct: replaced with media containing IFNγ (#285-IF/CF, R&D Systems) at a final concentration of 25 ng/mL; endogenous in cells; host or cells: HeLa (ATCC CCL-2), IFN-gamma stimulated
- Sequence (P14902 whole entry): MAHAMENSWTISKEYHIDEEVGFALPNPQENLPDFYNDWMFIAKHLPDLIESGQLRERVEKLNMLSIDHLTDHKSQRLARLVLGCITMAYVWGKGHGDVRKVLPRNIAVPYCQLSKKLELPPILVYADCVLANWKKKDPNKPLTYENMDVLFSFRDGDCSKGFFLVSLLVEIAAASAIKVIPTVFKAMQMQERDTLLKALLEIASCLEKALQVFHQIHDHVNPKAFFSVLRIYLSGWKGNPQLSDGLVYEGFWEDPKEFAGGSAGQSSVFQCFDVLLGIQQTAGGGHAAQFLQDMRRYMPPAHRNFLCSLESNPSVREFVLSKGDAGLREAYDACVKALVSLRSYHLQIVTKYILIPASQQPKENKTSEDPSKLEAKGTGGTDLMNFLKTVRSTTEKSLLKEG
- Measurement description: HeLa cell-based indoleamine 2,3-dioxygenase (IDO) assay, kynurenine production
- Conditions: HeLa cells, IFNγ 25 ng/mL, 48 hour incubation; read-out: IDO Hela IC50 class (A < 50, B < 250, C < 2000)
pIC50: −log10 of the molar value.

Which pIC50 is reported for this compound? CC[C@@H](CC(=O)O)c1ccc([C@H](OC)C(F)(F)F)c(Nc2ccc(Cl)cc2)c1 (single isomer, unassigned) > 7.30

Quick one: pIC50 for CC[C@H](CC(=O)O)c1ccc([C@@H](CC)C2CCOCC2)c(Nc2ccc(COC)nc2)c1 (single isomer, unassigned) [Example 127] ? > 7.30

Quick check: pIC50 of CCO[C@H](c1ccc([C@@H](CC)CC(=O)O)cc1Nc1ccc(F)cc1)C(F)(F)F (relative stereo) ? > 7.30

# get_value(readout='pIC50', item= CCO[C@H](c1ccc([C@@H](COC)CC(=O)O)cc1Nc1ncc(F)cn1)C(F)(F)F (relative stereo) ) 5.70 to 6.60

I am curious: what pIC50 value has been reported for CC[C@H](CC(=O)O)c1ccc([C@@H](CC)C2CCOCC2)c(Nc2ccc(COC)nc2)c1 (single isomer, unassigned) [Example 129] ? 6.60 to 7.30

Data request, read-out pIC50, for CCO[C@H](c1ccc([C@H](COC)CC(=O)O)cc1Nc1cnc(C)nc1)C(F)(F)F (single isomer, unassigned) 5.70 to 6.60

Query (compound): CC[C@@H](CC(=O)O)c1ccc([C@@H](OC)C(F)(F)F)c(Nc2ccc(C#N)cc2)c1 (single isomer, unassigned) ; field requested: pIC50 > 7.30

// pIC50 lookup, key: CC[C@@H](CC(=O)O)c1ccc([C@H](OC)C(F)(F)F)c(Nc2ccc(C#N)cc2)c1 (single isomer, unassigned) > 7.30

So what does the record say about pIC50 for CC[C@H](CC(=O)O)c1ccc([C@@H](OC)C(F)(F)F)c(Nc2ccc(Cl)cc2)c1 (single isomer, unassigned) ? > 7.30

I have this compound here, CC[C@H](c1ccc([C@@H](COC)CC(=O)O)cc1Nc1ccc(Cl)cc1)N1CCOCC1 (relative stereo) , and I need its recorded pIC50. 6.60 to 7.30

Consider the compound CC[C@@H](CC(=O)O)c1ccc([C@@H](OC)C(F)(F)F)c(Nc2ccc(Cl)cc2)c1 (single isomer, unassigned) and give its measured pIC50. > 7.30

Item under review: CCO[C@@H](c1ccc([C@@H](COC)CC(=O)O)cc1Nc1ccc(C#N)cc1)C(F)(F)F (single isomer, unassigned) . Reported pIC50? > 7.30

State the recorded pIC50 for this entry: CC[C@@H](CC(=O)O)c1ccc(C(CC(C)C)CC(C)C)c(NC(=O)Nc2ccc(C)cc2)c1 > 7.30

---

- Tested target: indoleamine 2,3-dioxygenase (IDO) (Homo sapiens)
- Construct: replaced with media containing IFNγ (#285-IF/CF, R&D Systems) at a final concentration of 25 ng/mL; endogenous in cells; host or cells: HeLa (ATCC CCL-2), IFN-gamma stimulated
- Measurement description: HeLa cell-based indoleamine 2,3-dioxygenase (IDO) assay, kynurenine production
- Conditions: HeLa cells, IFNγ 25 ng/mL, 48 hour incubation; read-out: IDO Hela IC50
Metric name: pIC50
# reply with the number alone; pIC50 is -log10 of concentration in mol/L

Form field: reported pIC50 of CC[C@H](CC(=O)O)c1ccc([C@H](OC)C(F)(F)F)c(Nc2cnc(C)nc2)c1 (single isomer, unassigned) [Example 94] 7.15

Entry CCO[C@H](c1ccc([C@H](COC)CC(=O)O)cc1Nc1ccc(C#N)c(F)c1)C(F)(F)F (single isomer, unassigned) [Example 55] has what pIC50? 8.00

For the compound shown here, CCO[C@@H](c1ccc([C@@H](COC)CC(=O)O)cc1Nc1ccc(Cl)cc1)C(F)(F)F (single isomer, unassigned) [Example 79] , give the reported pIC50. 8.00

If you can, please state the reported pIC50 value of CCO[C@@H](c1ccc([C@@H](COC)CC(=O)O)cc1Nc1ccc(C#N)c(F)c1)C(F)(F)F (single isomer, unassigned) [Example 77] . 7.52

Returns the measured pIC50 for the input compound. Input: CCOc1ncc(Nc2cc([C@H](CC)CC(=O)O)ccc2[C@@H](OCC)C(F)(F)F)cn1 (single isomer, unassigned) [Example 12] 7.70

Form field: reported pIC50 of CCO[C@@H](c1ccc([C@H](COC)CC(=O)O)cc1NC(=O)Nc1ccc(Cl)cc1F)C(F)(F)F (single isomer, unassigned) [Example 68] 6.62

Please look up its pIC50: CCOC(c1ccc(C(COC)CC(=O)O)cc1NC(=O)Nc1ccc(C)cc1)C(F)(F)F (single isomer, unassigned) [Example 52] 6.64

Return reported pIC50; argument: CCO[C@H](c1ccc([C@@H](CC)CC(=O)O)cc1NC(=O)Nc1ccc(C)cc1)C(F)(F)F (single isomer, unassigned) [Example 19] 6.24

Consider the compound shown here: CCOc1ncc(Nc2cc([C@@H](CC)CC(=O)O)ccc2[C@H](CC)N2CCOCC2)cn1 (single isomer, unassigned) [Example 118-1] What is its recorded pIC50? 6.12

Give its pIC50 value. Item: CC[C@@H](c1ccc([C@@H](COC)CC(=O)O)cc1Nc1ccc(F)cc1)N1CCOCC1 (single isomer, unassigned) [Example 106] 8.00

What value of pIC50 has been reported for the following compound? CCO[C@H](c1ccc([C@@H](CC)CC(=O)O)cc1Nc1cnc(COC)nc1)C(F)(F)F (single isomer, unassigned) [Example 27] 7.05

What does the record list as pIC50 for CCc1ncc(Nc2cc([C@H](CC)CC(=O)O)ccc2[C@@H](CC)N2CCOCC2)cn1 (single isomer, unassigned) [Example 119] ? 7.70
